Source: patent US20200002405A1

Target: T1, LASV Josiah (lineage IV) glycoprotein, full-length GP (Lassa virus, Josiah strain, UniProt P08669 2-491)
T1 sequence: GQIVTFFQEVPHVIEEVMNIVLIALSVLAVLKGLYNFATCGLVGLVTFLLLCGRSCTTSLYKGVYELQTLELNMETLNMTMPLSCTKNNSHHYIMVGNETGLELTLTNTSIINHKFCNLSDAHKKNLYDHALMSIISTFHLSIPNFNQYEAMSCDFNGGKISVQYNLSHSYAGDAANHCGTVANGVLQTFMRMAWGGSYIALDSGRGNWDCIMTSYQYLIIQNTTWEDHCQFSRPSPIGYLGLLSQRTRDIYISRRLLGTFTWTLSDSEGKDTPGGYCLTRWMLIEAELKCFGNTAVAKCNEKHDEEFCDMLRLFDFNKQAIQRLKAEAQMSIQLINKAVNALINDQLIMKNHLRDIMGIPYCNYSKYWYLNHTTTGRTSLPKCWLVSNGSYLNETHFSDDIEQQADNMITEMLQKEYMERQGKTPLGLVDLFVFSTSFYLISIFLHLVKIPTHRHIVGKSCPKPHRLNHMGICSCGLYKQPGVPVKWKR
Experiment: cell-based or functional assay
# IC50 (neutralization) per record follows

{"Binder": "37.7H (antibody, V domains shown) VH: EVQLVQSGGGLVKAGGSLRLSCAASGFTFSTYSMNWIRQAPGKGLEWVASISSRSGSHINYVDSVKGRFTISRDNARDLLYLQMNSLRVDDSALYYCARDRRSGTSPLPLDVWGQGTTVTVFS VL: DQSALTQPASVSGSPGQSITISCTGTGSDIGGYNFVSWYQQYPGKAPKLIIYEVRIRASGVSNRFSGSKSGNTASLTISGLQAEDEADYYCNSYSIHSPWVFGGGTKLTVLR", "Unit name": "µg/mL", "IC50 (neutralization)": 0.191}
{"Binder": "8.11G (antibody, V domains shown) VH: QVQLQESGPGLVKPSETLSLTCSISGVSTRNYYWSWIRQSPGKGLEWIGYIFNIGTTNYNPSLKSRLTISVDTSKNQFSLKITSVTAADTAVYYCASGFEYGDYTFDYWGQGTPVTVSS VL: EIVLTQSPATLSVSPGGRASLSCRASQSIGDKLSWYQQKPGQAPRLVIYGAYTRATDISPRFSGSRSGTDFNLTISRMQSGDFAVYFCQQYENWPRTFGQGTKLEIKR", "Unit name": "µg/mL", "IC50 (neutralization)": 0.361}
{"Binder": "25.6A (antibody, V domains shown) VH: QVQLQESGGGLVKAGGSLRLSCAASGFMFERYSLHWVRQTPGKGLEWVSSISSLSGSHINYADSVKGRFTISRDNAKNSLSLQMNSLRVEDTAIYYCARDRRSGSSPVPLDVWGQGTTVTVSS VL: DLPVLTQPASVSGSPGQSITISCTGTSSDVGAYNYVSWYQQHPGKAPKLIIYEVKIRPSGVSNRFSGSKSGNTASLTISGLQAEDEADYFCSSYSTNSPWVFGGGTKVTVLR", "Unit name": "µg/mL", "IC50 (neutralization)": 0.743}
